Cited source: the supplement of paper PMC10567573

B1: NR2F2 (parent)
chain: VAHVESLQEKSQCALEEYVRSQYP

Variants of: B1
Experiment: protein stability index of a GFP-peptide fusion (GPS, HEK-293T) (PSI 1-6); higher = more stable;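 note: lentivirally expressed fusions sorted by FACS into six bins by GFP to DsRed ratio, PSI derived from sequencing read proportions per bin multiplied by bin number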
Conditions: c terminus: a fixed tail appended
READOUT_NAME: protein stability index

What does the data say about its protein stability index? Entry: VAHVESLQEKPQCALEEYVRSQYP [S11P]
4.04

What does the data say about its protein stability index? Entry: VAHVESLCEKSQCALEEYVRSQYP [Q8C]
2.99

What does the data say about its protein stability index? Entry: VMHVESLQEKSQCALEEYVRSQYP [A2M]
3.03

What does the data say about its protein stability index? Entry: VAHVESVQEKSQCALEEYVRSQYP [L7V]
4.05

What does the data say about its protein stability index? Entry: VAHQESLQEKSQCALEEYVRSQYP [V4Q]
4.03
